Source: patent US10392385B2

smiles.string: COc1ccc(-c2nc(CNC(=O)/C=C/c3ccc(O)c(OC)c3)cc3c2[nH]c2ccccc23)cc1
melting point: 215 to 220 °C

smiles.string: COc1cc(/C=C/C(=O)NCc2cc3c([nH]c4ccccc43)c(-c3cccc(F)c3)n2)ccc1O
melting point: 205 to 210 °C

smiles.string: COc1cc(-c2nc(CNC(=O)/C=C/c3cc(F)cc(F)c3)cc3c2[nH]c2ccccc23)cc(OC)c1OC
melting point: 228 to 230 °C

smiles.string: O=C(/C=C/c1ccc(Cl)cc1)NCc1cc2c([nH]c3ccccc32)c(-c2cccc(F)c2)n1
melting point: 248 to 250 °C

smiles.string: O=C(/C=C/c1ccc(F)cc1)NCc1cc2c([nH]c3ccccc32)c(-c2cccc(F)c2)n1
melting point: 258 to 264 °C

smiles.string: COc1ccc(OC)c(/C=C/C(=O)NCc2cc3c([nH]c4ccccc43)c(-c3cccc(F)c3)n2)c1
melting point: 228 to 230 °C

smiles.string: COc1cc(-c2nc(CNC(=O)/C=C/c3ccc(F)cc3)cc3c2[nH]c2ccccc23)cc(OC)c1OC
melting point: 214 to 218 °C

smiles.string: COc1ccc(-c2nc(CNC(=O)/C=C/c3cc(OC)c(OC)c(OC)c3)cc3c2[nH]c2ccccc23)cc1
melting point: 148 to 150 °C

smiles.string: COc1ccc(-c2nc(CNC(=O)/C=C/c3cc(F)cc(F)c3)cc3c2[nH]c2ccccc23)cc1
melting point: 230 to 232 °C

smiles.string: COc1ccc(-c2nc(CNC(=O)/C=C/c3ccc(F)cc3)cc3c2[nH]c2ccccc23)cc1
melting point: 145 to 148 °C

smiles.string: COc1ccc(-c2nc(CNC(=O)/C=C/c3ccc(Cl)c(Cl)c3)cc3c2[nH]c2ccccc23)cc1
melting point: 188 to 190 °C

smiles.string: COc1cc(-c2nc(CNC(=O)/C=C/c3ccc(Cl)cc3)cc3c2[nH]c2ccccc23)cc(OC)c1OC
melting point: 148 to 150 °C

smiles.string: COc1cc(/C=C/C(=O)NCc2cc3c([nH]c4ccccc43)c(-c3cccc(F)c3)n2)cc(OC)c1OC
melting point: 148 to 150 °C

====

# reported IC50; entries follow
Test system: B16 (melanoma)
method.notes: MTT cytotoxicity assay, B16
Type: cell-based
condition.info: 48 h of drug treatment (footnote), average of three experiments

compound: COc1ccc(-c2nc(CNC(=O)/C=C/c3ccc(Cl)cc3)cc3c2[nH]c2ccccc23)cc1
IC50 / nM: 16.6

compound: O=C(/C=C/c1ccc(Cl)cc1)NCc1cc2c([nH]c3ccccc32)c(-c2cccc(F)c2)n1
IC50 / nM: 18.2

compound: COc1cc(-c2nc(CNC(=O)/C=C/c3cccc(O)c3)cc3c2[nH]c2ccccc23)cc(OC)c1OC
IC50 / nM: 21.8

compound: COc1cc(-c2nc(CNC(=O)/C=C/c3ccc(F)cc3)cc3c2[nH]c2ccccc23)cc(OC)c1OC
IC50 / nM: 17.2

compound: O=C(/C=C/c1ccc(F)cc1)NCc1cc2c([nH]c3ccccc32)c(-c2cccc(F)c2)n1
IC50 / nM: 16.8

compound: COc1ccc(OC)c(/C=C/C(=O)NCc2cc3c([nH]c4ccccc43)c(-c3cccc(F)c3)n2)c1
IC50 / nM: 19.9

compound: COc1ccc(-c2nc(CNC(=O)/C=C/c3ccc(O)c(OC)c3)cc3c2[nH]c2ccccc23)cc1
IC50 / nM: 19.8

compound: COc1cc(/C=C/C(=O)NCc2cc3c([nH]c4ccccc43)c(-c3cc(OC)c(OC)c(OC)c3)n2)ccc1O
IC50 / nM: 19

compound: COc1cccc2c1C(=O)c1c(O)c3c(c(O)c1C2=O)C[C@@](O)(C(=O)CO)C[C@@H]3O[C@H]1C[C@H](N)[C@H](O)[C@H](C)O1 [Doxorubicin, reference compound]
IC50 / nM: 670

compound: O=C(/C=C/c1ccc(Cl)c(Cl)c1)NCc1cc2c([nH]c3ccccc32)c(-c2cccc(F)c2)n1
IC50 / nM: 18.9

compound: COc1ccc(OC)c(/C=C/C(=O)NCc2cc3c([nH]c4ccccc43)c(-c3cc(OC)c(OC)c(OC)c3)n2)c1
IC50 / nM: 19.2

compound: COc1cc(-c2nc(CNC(=O)/C=C/c3ccc(Cl)cc3)cc3c2[nH]c2ccccc23)cc(OC)c1OC
IC50 / nM: 18.7

compound: COc1ccc(-c2nc(CNC(=O)/C=C/c3cc(OC)c(OC)c(OC)c3)cc3c2[nH]c2ccccc23)cc1
IC50 / nM: 17.4

compound: COc1cc(/C=C/C(=O)NCc2cc3c([nH]c4ccccc43)c(-c3cccc(F)c3)n2)ccc1O
IC50 / nM: 19.4

compound: O=C(/C=C/c1cccc(O)c1)NCc1cc2c([nH]c3ccccc32)c(-c2cccc(F)c2)n1
IC50 / nM: 24.9

compound: COc1ccc(-c2nc(CNC(=O)/C=C/c3ccc(Cl)c(Cl)c3)cc3c2[nH]c2ccccc23)cc1
IC50 / nM: 23

compound: COc1ccc(-c2nc(CNC(=O)/C=C/c3ccc(F)cc3)cc3c2[nH]c2ccccc23)cc1
IC50 / nM: 21.9
